Biological target: VLA-4/CS-1 (Homo sapiens, UniProt P05556+P13612)
Construct: inflammatory cells that contain the VLA-4 receptor [Jurkat cells; host or cells: Jurkat (human T lymphoblastic line)
Sequence (P13612 34-1032): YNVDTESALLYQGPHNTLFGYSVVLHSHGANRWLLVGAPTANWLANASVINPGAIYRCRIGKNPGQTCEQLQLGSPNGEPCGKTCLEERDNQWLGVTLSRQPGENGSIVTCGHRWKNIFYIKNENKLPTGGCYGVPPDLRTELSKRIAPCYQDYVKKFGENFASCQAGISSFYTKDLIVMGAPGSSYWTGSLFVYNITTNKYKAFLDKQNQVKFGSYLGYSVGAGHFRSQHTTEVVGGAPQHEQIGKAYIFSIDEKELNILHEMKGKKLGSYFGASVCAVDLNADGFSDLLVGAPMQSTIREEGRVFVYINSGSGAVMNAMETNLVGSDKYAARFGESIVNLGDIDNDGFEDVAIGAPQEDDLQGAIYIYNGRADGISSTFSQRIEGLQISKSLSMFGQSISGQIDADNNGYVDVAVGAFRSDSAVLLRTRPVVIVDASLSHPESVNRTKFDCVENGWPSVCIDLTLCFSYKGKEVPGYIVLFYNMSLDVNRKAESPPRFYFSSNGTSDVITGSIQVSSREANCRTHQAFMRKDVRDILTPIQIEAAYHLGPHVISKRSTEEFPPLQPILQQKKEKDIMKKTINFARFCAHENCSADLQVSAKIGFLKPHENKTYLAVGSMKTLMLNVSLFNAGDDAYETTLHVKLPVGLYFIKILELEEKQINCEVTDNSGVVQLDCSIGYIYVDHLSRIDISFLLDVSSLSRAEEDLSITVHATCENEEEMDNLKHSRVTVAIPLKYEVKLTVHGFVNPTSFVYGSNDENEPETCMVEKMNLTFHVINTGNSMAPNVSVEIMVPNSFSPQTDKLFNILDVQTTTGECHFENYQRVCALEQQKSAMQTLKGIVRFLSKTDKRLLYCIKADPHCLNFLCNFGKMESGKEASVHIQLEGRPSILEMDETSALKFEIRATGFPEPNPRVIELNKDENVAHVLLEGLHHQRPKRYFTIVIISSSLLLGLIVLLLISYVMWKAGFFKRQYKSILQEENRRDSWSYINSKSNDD
Sequence (P05556 21-798): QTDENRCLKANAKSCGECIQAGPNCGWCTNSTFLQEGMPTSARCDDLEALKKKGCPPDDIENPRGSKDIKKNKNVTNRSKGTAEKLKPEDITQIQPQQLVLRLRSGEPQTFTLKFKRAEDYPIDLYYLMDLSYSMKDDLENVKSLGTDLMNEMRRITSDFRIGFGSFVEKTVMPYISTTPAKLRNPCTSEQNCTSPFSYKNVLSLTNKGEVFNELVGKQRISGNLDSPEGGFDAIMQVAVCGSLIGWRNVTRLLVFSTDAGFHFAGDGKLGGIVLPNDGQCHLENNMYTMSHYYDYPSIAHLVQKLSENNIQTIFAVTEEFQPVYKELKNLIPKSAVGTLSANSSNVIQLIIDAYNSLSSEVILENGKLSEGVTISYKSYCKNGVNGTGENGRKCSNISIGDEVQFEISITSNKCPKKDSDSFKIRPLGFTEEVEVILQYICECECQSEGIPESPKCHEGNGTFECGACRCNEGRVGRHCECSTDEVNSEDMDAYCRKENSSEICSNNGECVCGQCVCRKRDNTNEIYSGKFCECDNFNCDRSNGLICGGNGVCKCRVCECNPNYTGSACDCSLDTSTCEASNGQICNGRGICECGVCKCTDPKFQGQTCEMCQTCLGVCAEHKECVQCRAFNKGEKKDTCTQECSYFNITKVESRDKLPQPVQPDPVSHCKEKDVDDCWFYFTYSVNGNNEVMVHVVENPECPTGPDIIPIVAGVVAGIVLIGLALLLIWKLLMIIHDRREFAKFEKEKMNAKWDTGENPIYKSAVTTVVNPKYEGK
Experiment: In vitro inhibition of binding of 51Cr-labeled Jurkat cells to solid phase-bound CS-1 peptide
Type: cell-based
Settings: times more potent than standard 10-mer
Non-standard residues stand in square brackets, D forms with d. Residues, ends and D or L forms follow the SMILES beside them. *: point of attachment. PhAc = O=C(Cc1ccccc1)*
MEASURED_PROPERTY: inhibition potency relative to the Standard 10-mer of SEQ ID NO:6

CC(C)C[C@H](NC(=O)Cc1ccccc1)C(=O)N[C@@H](CC(=O)O)C(=O)N[C@@H](Cc1ccccc1)C(=O)N1CCC[C@@H]1C(N)=O [XLDFp, .phi.Ac-LeuAspPhe-D-Pro-NH2, reference compound] (PhAc-LDF[dP]-NH2) | ~313
CC(C)C[C@H](N)C(=O)N[C@@H](CC(=O)O)C(=O)N[C@H](C(N)=O)C(C)C [LDV--NH2, reference compound] (H-Leu-Asp-Val-NH2) | zero
